tested on: MGLL; assay: Kinetic analysis: hydrolysis of 4-methyl coumarin butyrate (4MC-B) by MGLL constructs; format: biochemical, human; conditions: substrate 4MC-B; 4-5 nM MGLL, 20 mM Pipes pH 7, 150 mM NaCl, 37° C.; average of 2 or 4 separate assays
measured quantity: Km (µM)
Output spec: scalar in µM, unitless text.

Ask | Need Km, item mut-MGLL 1-303, L167Q, L171Q: engineered form of human MGLL, cap mutations (protein) MVDHHHHHHENLYFQGMPEESSPRRTPQSIPYQDLPHLVNADGQYLFCRYWKPTGTPKALIFVSHGAGEHSGRYEELARMLMGLDLLVFAHDHVGHGQSEGERMVVSDFHVFVRDVLQHVDSMQKDYPGLPVFLLGHSMGGAIAILTAAERPGHFAGMVLISPLVLANPESATTFKVLAAKVQNLVQPNLSLGPIDSSVLSRNKTEVDIYNSDPLICRAGLKVCFGIQLLNAVSRVERALPKLTVPFLLLQGSADRLCDSKGAYLLMELAKSQDKTLKIYEGAYHVLHKELPEVTNSVFHEINMWVSQRTATAGTASPP
Reply | 84
